- target: TEC (Homo sapiens)
- test: Inhibition of a panel of kinases, in vitro HotSpot kinase assay: TEC
- Assay type: biochemical
- cond: D-compounds panel data; 1 μM ATP
readout_label: IC50

The cases that follow already have their IC50 on record.
molecule | observed
C[C@H]1CC[C@H](NC(=O)c2ccc(C3CC3)cc2)CN1c1cnc(C(N)=O)c(Nc2cnn(C)c2)n1 | 1000 to 10000 nM
C[C@@H]1[C@H](N2Cc3cc(Br)ccc3C2=O)CCCN1c1cnc(C(N)=O)c(Nc2cnn(C)c2)n1 | ≤ 10 nM

Moving on to the next molecule.
Problem: Item C[C@@H]1[C@H](NC(=O)c2ccc(C(C)(C)C)cc2)CCCN1c1cnc(C(N)=O)c(Nc2ccc(N3CCN(C)CC3)cc2)n1 : provide IC50
Solution: 10 to 100 nM

====

# reported pIC50; entries follow
- target: LCK (Homo sapiens, UniProt P06239)
- Sequence (P06239 whole entry): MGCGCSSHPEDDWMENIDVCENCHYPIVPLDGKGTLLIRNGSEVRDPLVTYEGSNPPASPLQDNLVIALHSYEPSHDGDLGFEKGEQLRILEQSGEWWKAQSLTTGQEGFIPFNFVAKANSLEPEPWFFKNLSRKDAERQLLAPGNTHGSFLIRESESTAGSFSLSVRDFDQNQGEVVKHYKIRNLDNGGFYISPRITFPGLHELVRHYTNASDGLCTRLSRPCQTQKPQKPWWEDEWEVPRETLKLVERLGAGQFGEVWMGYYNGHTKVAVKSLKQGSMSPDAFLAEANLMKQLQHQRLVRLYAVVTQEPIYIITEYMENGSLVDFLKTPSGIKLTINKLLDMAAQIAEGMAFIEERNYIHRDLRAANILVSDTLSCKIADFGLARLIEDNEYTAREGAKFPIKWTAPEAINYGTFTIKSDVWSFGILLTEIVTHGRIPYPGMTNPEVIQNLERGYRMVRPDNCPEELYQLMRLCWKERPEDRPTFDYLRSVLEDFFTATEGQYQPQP
- test: Inhibition of a panel of kinases, in vitro HotSpot kinase assay: LCK
- Assay type: biochemical
- cond: Table 10, Formula A-I; 1 μM ATP; read-out: LCK (IC50)
pIC50: −log10 of the molar value.

molecule | observed
Cc1cc(Nc2nc(N3CCC(CNC(=O)N(C)C)CC3)cnc2C(N)=O)sn1 | 6.00 to 7.00
Cc1cc(Nc2nc(N3CCC[C@@H](NC(=O)c4ccc(F)cc4)C3)cnc2C(N)=O)sn1 | 6.00 to 7.00
CS(=O)(=O)c1ccc(Nc2nc(N3CCC[C@@H](NC(=O)Nc4ccccc4)C3)cnc2C(N)=O)cc1 | 6.00 to 7.00

Moving on to the next compound.
Problem: Look up LCK (Homo sapiens, UniProt P06239) data: pIC50 of Cc1cc(Nc2nc(N3CCC[C@@H](NC(=O)Nc4ccccc4)C3)cnc2C(N)=O)sn1 , then report it.
Solution: > 7.00

====

# reported IC50; entries follow
- target: UniProt P06239
- test: Inhibition of a panel of kinases, in vitro HotSpot kinase assay: LCK
- Type: biochemical
- cond: D-compounds panel data; 1 μM ATP; read-out: IC50 LCK

The cases that follow already have their IC50 on record.
molecule | IC50
C[C@@H]1[C@H](NC(=O)N(C)C)CCCN1c1nnc(C(N)=O)c(Nc2cnn(C)c2)n1 | 100 to 1000 nM
CCn1cc(Nc2nc(N3CCC[C@@H](NC(=O)c4ccc(C5CC5)cc4)[C@H]3C)cnc2C(N)=O)cn1 | 100 to 1000 nM
C[C@@H]1[C@H](NC(=O)c2ccc(C3CC3)cc2F)CCCN1c1cnc(C(N)=O)c(Nc2ccc(N3CCN(C)CC3)nc2)n1 | 100 to 1000 nM
C[C@@H]1[C@H](NC(=O)c2ccc(C3CC3)cc2F)CCCN1c1cnc(C(N)=O)c(Nc2ccc(N3CCOCC3)cc2)n1 | 1000 to 10000 nM
C[C@@H]1[C@H](NC(=O)c2ccc(C3CC3)cc2)CCCN1c1cnc(C(N)=O)c(Nc2ccc(OC3C[C@H]4CC[C@@H](C3)N4C)cc2)n1 (stereo partly drawn) [Example D-106] | 10 to 100 nM

Problem: Item C[C@@H]1[C@H](NC(=O)c2ccc(N(C)C)cc2)CCCN1c1cnc(C(N)=O)c(Nc2cnn(C)c2)n1 : provide IC50
Solution: 10 to 100 nM

Problem: Item COc1cc(C(=O)N[C@@H]2CCCN(c3cnc(C(N)=O)c(Nc4cnn(C)c4)n3)[C@@H]2C)ccc1C1CC1 : provide IC50
Solution: 100 to 1000 nM

Problem: Item C[C@@H]1[C@H](NC(=O)c2ccc(OC(F)(F)F)cc2)CCCN1c1cnc(C(N)=O)c(Nc2cnn(C)c2)n1 : provide IC50
Solution: 100 to 1000 nM

====

# reported IC50; entries follow
- target: SRC (Homo sapiens)
- Sequence (P12931 whole entry): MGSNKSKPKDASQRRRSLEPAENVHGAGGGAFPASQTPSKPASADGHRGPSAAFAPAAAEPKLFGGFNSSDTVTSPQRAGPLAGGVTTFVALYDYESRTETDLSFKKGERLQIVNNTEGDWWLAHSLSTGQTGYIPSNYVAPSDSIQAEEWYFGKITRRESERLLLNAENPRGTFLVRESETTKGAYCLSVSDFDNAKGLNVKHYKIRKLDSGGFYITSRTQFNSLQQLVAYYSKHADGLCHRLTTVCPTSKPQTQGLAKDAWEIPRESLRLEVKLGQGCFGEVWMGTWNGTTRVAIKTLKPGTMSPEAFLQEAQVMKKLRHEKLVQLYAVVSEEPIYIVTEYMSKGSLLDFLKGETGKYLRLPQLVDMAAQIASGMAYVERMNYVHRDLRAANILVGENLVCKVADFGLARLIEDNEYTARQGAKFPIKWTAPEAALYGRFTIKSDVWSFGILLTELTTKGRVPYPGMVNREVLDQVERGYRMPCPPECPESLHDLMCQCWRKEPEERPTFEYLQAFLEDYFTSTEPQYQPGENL
- test: Inhibition of a panel of kinases, in vitro HotSpot kinase assay: SRC
- Assay type: biochemical
- cond: D-compounds panel data; 1 μM ATP

molecule | target | IC50
Cc1ncc(Nc2nc(N3CCC[C@@H](NC(=O)c4ccc(C5CC5)cc4)[C@H]3C)cnc2C(N)=O)s1 | SRC (Homo sapiens) | 0.1 to 1 µM
C[C@@H]1[C@H](NC(=O)c2ccc(C3CC3)cn2)CCCN1c1cnc(C(N)=O)c(Nc2cnn(C)c2)n1 | SRC (Homo sapiens) | 0.01 to 0.1 µM
C[C@@H]1[C@H](NC(=O)c2ccc(C3CC3)cc2)CCCN1c1cnc(C(N)=O)c(Nc2ccc(N3CCCCC3)cc2)n1 | SRC (Homo sapiens) | 1 to 10 µM
C[C@@H]1[C@H](NC(=O)c2ccc(C3CC3)cc2)CCCN1c1cnc(C(N)=O)c(Nc2cn[nH]c2)n1 | SRC (Homo sapiens) | 0.1 to 1 µM

Moving on to the next molecule.
Problem: Look up SRC (Homo sapiens) data: IC50 of Cn1cc(Nc2nc(N3CCC[C@@H](NC(=O)c4ccc(C5CC5)cc4)C3)nnc2C(N)=O)cn1 , then report it.
Solution: 0.1 to 1 µM

====

- target: ITK (Homo sapiens)
- Sequence (Q08881 whole entry): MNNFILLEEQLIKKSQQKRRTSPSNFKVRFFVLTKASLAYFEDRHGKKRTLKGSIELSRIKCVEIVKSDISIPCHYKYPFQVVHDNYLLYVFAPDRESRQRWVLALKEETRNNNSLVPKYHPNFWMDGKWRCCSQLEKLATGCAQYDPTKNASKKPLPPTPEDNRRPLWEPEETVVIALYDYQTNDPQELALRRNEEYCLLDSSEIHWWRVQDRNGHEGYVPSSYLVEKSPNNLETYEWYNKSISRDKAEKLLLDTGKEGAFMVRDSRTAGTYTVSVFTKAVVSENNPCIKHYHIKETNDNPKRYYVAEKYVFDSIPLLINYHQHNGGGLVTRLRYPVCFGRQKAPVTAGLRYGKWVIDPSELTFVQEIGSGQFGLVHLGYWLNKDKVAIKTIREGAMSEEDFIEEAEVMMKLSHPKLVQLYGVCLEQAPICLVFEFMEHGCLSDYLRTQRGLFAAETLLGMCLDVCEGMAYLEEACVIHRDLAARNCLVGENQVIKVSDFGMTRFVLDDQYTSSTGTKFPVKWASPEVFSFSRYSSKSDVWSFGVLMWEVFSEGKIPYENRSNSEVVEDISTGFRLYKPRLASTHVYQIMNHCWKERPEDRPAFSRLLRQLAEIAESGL
- test: Inhibition of a panel of kinases, in vitro HotSpot kinase assay: ITK
- Format: biochemical
- cond: D-compounds panel data; 1 μM ATP
pIC50: −log10 of the molar value.
# reported pIC50; entries follow

compound | pIC50
C[C@@H]1[C@H](NC(=O)c2cc3n(n2)CCC3)CCCN1c1cnc(C(N)=O)c(Nc2cnn(C)c2)n1 [Example D-263] | 6.00 to 7.00
C[C@@H]1[C@H](NC(=O)c2ccc(C(C)(C)C#N)cc2)CCCN1c1cnc(C(N)=O)c(Nc2cnn(C)c2)n1 [Example D-88] | 6.00 to 7.00
C[C@@H]1[C@H](NC(=O)c2ccc(C3CC3)cc2F)CCCN1c1cnc(C(N)=O)c(Nc2ccc(CN3CCN(C)CC3)cc2)n1 [Example D-113] | 6.00 to 7.00
C[C@@H]1[C@H](NC(=O)c2ccc(C3CC3)cc2F)CCCN1c1cnc(C(N)=O)c(Nc2ccc(N3CCN(C)CC3)c(F)c2)n1 [Example D-82] | 6.00 to 7.00

Moving on to the next compound.
Problem: Item CC(C)c1ccc(S(=O)(=O)N[C@@H]2CCCN(c3cnc(C(N)=O)c(Nc4cnn(C)c4)n3)[C@@H]2C)cc1 [Example D-220] : provide pIC50
Solution: < 5.00

====

- target: TEC (Homo sapiens, UniProt P42680)
- Sequence (P42680 whole entry): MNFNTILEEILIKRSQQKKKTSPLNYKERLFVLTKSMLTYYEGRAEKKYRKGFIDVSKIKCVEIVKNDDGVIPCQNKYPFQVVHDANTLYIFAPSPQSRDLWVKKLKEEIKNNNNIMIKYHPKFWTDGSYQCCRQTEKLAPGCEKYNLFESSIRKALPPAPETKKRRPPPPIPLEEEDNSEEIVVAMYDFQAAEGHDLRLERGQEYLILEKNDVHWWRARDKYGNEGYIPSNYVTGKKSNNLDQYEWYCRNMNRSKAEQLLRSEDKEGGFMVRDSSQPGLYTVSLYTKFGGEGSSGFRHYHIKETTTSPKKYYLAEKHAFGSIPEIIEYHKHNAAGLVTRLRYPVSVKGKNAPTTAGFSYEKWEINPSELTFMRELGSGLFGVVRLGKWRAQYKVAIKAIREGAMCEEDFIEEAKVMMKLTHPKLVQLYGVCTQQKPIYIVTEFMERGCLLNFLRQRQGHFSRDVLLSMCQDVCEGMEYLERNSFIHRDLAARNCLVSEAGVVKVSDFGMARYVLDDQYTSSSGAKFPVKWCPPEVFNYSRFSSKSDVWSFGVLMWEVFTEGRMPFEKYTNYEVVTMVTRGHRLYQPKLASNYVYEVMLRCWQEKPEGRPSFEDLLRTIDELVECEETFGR
- test: Inhibition of a panel of kinases, in vitro HotSpot kinase assay: TEC
- Type: biochemical
- cond: Table 13, A compounds; 1 μM ATP
readout_label: IC50

The cases that follow already have their IC50 on record.
compound | observed
Cn1cc(Nc2nc(N3C[C@H](NC(=O)c4ccc(C5CC5)cc4)CC(F)(F)C3)cnc2C(N)=O)cn1 [Example A-188] | 100 to 1000 nM
C[C@@H]1[C@H](NC(=O)c2ccc(C3CC3)cc2F)CCCN1c1cnc(C(N)=O)c(Nc2cnn(C)c2)c1 [Example A-127] | 100 to 1000 nM

Problem: Item C[C@@H]1[C@H](NC(=O)c2ccc(C3CC3)cc2Cl)CCCN1c1cnc(C(N)=O)c(Nc2ccc(N3CCN(C)CC3)cc2)n1 [Example A-180] : provide IC50
Solution: 10 to 100 nM

====

- target: SRC (Homo sapiens)
- test: Inhibition of a panel of kinases, in vitro HotSpot kinase assay: SRC
- Assay type: biochemical
- cond: D-compounds panel data; 1 μM ATP
pIC50: −log10 of the molar value.
# reported pIC50; entries follow

The cases that follow already have their pIC50 on record.
molecule | target | readout_label | observed
Cc1c(Nc2nc(N3CCC[C@@H](NC(=O)c4ccc(C5CC5)cc4)[C@H]3C)cnc2C(N)=O)cnn1C | SRC (Homo sapiens) | pIC50 | 5.00 to 6.00
C[C@@H]1[C@H](NC(=O)c2ccc(C3CC3)cc2)CCCN1c1cnc(C(N)=O)c(Nc2ccc(C3(C)CCN(C4CCCC4)CC3)cc2)n1 | SRC (Homo sapiens) | pIC50 | ≥ 8.00

Problem: Item C[C@@H]1[C@H](NC(=O)c2cc(C(C)(C)C)on2)CCCN1c1cnc(C(N)=O)c(Nc2cnn(C)c2)n1 : provide pIC50
Solution: 6.00 to 7.00

Problem: Item C[C@@H]1[C@H](NC(=O)c2ccc(C3CC3)c(O)c2)CCCN1c1cnc(C(N)=O)c(Nc2cnn(C)c2)n1 : provide pIC50
Solution: 7.00 to 8.00

Problem: Item C[C@@H]1[C@H](NC(=O)N(C)C)CCCN1c1nnc(C(N)=O)c(Nc2cnn(C)c2)n1 : provide pIC50
Solution: 7.00 to 8.00

Hello, the source for this data is patent US20210070748A1, in case you need it.
